Assay: Steady-state electronic absorption and fluorescence spectroscopy
Format: physicochemical
Settings: extinction coefficient at λmax, toluene
experimental readout: ε

[[record]]
molecule = "CCCCCCCCN1C(=O)c2c(CCc3ccccc3)ccc3ccc(CCc4ccccc4)c(c23)C1=O [Compound 2]"
result = "15000 M⁻¹ cm⁻¹"

[[record]]
molecule = "CCCCCCCCN1C(=O)c2c(CCc3ccccc3)cc3c4cc(CCc5ccccc5)c5c6c(c(CCc7ccccc7)cc(c7cc(CCc8ccccc8)c(c2c37)C1=O)c64)C(=O)N(CCCCCCCC)C5=O [Compound 8]"
result = "58000 M⁻¹ cm⁻¹"

[[record]]
molecule = "CCCCC(CC)CN1C(=O)c2c(CCc3ccccc3)cc3c4ccc5c6cc(CCc7ccccc7)c7c8c(c(CCc9ccccc9)cc(c9ccc(c%10cc(CCc%11ccccc%11)c(c2c3%10)C1=O)c4c59)c86)C(=O)N(CC(CC)CCCC)C7=O (stereo not shown) [Compound 10]"
result = "80000 M⁻¹ cm⁻¹"


Now examine the next entry.
## Task Given the molecule CCCCC(CC)CN1C(=O)c2c(CCc3ccccc3)cc3c4cccc5cccc(c6cc(CCc7ccccc7)c(c2c36)C1=O)c54 (stereo not shown) [Compound 6] , what is its reported ε?
## Result 27000 M⁻¹ cm⁻¹
